Assay: Metabolic stability test, human liver microsomes
Type: in vitro ADME
Conditions: 37° C., 30 minutes, NADPH
Experimental: Commercially available pooled human liver microsomes were reacted with the compound of the present invention for a given time. A residual rate was calculated by comparison between the reacted sample and the unreacted sample to evaluate a degree at which the compound of the present invention is metabolized in the liver. […]
The reader will find reported Remaining amount of compound, Human values listed item by item below.

- molecule: "CC(=O)N[C@@H](C)C(F)(F)C[C@H]1CCC(Oc2nc3c(F)cc(OCC(F)F)c(F)c3n2C)CO1 (stereo partly drawn) [Compound I-7]"
  Remaining amount of compound, Human / %: 89.1
- molecule: "Cn1c(OC2CCC(OC[C@H](CF)NC(N)=O)CC2)nc2c(F)cc(OC3CC3)cc21 (stereo partly drawn) [Compound I-5]"
  Remaining amount of compound, Human / %: 98.9
- molecule: "C[C@@H](COC1CCC(Oc2nc3c(F)cc(OC4CC4)cc3n2C)CC1)NC(N)=O (stereo partly drawn) [Compound I-12]"
  Remaining amount of compound, Human / %: 83.3
- molecule: "CC(=O)N[C@@H](C)CCC1OCC(Oc2nc3c(F)c(OC4CC4)ccc3n2C)CO1 (stereo partly drawn) [Compound I-13]"
  Remaining amount of compound, Human / %: 95.4
- molecule: "CC(=O)N[C@@H](CF)COC1CCC(Oc2nc3c(F)cc(OC4CC4)cc3n2C)CC1 (stereo partly drawn) [Compound I-4]"
  Remaining amount of compound, Human / %: 93.4
- molecule: "C[C@@H](COC1CCC(Oc2nc3c(Cl)cc(OC4CC4)cc3n2C)CC1)NC(N)=O (stereo partly drawn) [Compound I-8]"
  Remaining amount of compound, Human / %: 83.6
- molecule: "C[C@@H](CCC1OCC(Oc2nc3c(F)cc(OCC(F)F)c(F)c3n2C)CO1)NC(N)=O (stereo partly drawn) [Compound I-11]"
  Remaining amount of compound, Human / %: 95.8
- molecule: "CC(=O)N[C@@H](C)CCC1CCC(Oc2nc3c(F)cc(OC4CC4)cc3n2C)CC1 (stereo partly drawn) [Compound I-15]"
  Remaining amount of compound, Human / %: 80.2
- molecule: "CC(=O)N[C@@H](C)COC1CCC(Oc2nc3c(Cl)cc(OC4CC4)cc3n2C)CC1 (stereo partly drawn) [Compound I-3]"
  Remaining amount of compound, Human / %: 80.3
